- System under test: UniProtKB P30542
- Sequence (P30542 whole entry): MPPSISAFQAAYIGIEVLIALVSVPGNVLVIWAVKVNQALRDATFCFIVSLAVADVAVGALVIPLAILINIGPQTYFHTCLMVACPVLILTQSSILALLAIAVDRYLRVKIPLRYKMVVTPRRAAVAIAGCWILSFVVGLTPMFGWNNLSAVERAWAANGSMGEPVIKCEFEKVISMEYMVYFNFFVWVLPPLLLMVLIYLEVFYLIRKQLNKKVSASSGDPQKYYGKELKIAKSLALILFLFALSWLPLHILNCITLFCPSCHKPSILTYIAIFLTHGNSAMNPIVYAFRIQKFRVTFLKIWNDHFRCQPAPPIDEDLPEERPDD
- Protocol notes: Radioligand binding at hA1AR, CHO cell membranes, [3H]R-PIA
- Condition parameters: read-out: hA1AR % inhibition
Field: inhibition at 10 µM. Provide a value for each of the compounds that follow.
A complete answer gives the number and then names the unit.

-- ask // lookup inhibition at 10 µM for CNC(=O)[C@@]12C[C@@H]1[C@@H](n1cnc3c(/C=C(\O)c4ccc(C(C)(C)C)cc4)nc(C#Cc4ccc(C(C)(C)C)cc4)nc31)C(O)C2O (stereo in doubt) [Compound 40]
-- reply 16%

-- ask Would you mind doing CNC(=O)[C@@]12C[C@@H]1[C@@H](n1cnc3c(NC)nc(C#Cc4cccnc4)nc31)[C@H](O)[C@@H]2O [Compound 15] as well?
-- reply 16%

-- ask Would you mind doing CNC(=O)[C@@]12C[C@@H]1[C@@H](n1cnc3c(NC)nc(C#Cc4cc(C)c(C)o4)nc31)[C@H](O)[C@@H]2O [Compound 29] as well?
-- reply 15%

-- ask Would you mind doing CNC(=O)[C@@]12C[C@@H]1[C@@H](n1cnc3c(NC)nc(C#Cc4cccnn4)nc31)[C@H](O)[C@@H]2O [Compound 10] as well?
-- reply 11%

-- ask Would you mind doing CNC(=O)[C@@]12C[C@@H]1[C@@H](n1cnc3c(NC)nc(C#Cc4ccccc4OC)nc31)[C@H](O)[C@@H]2O [Compound 13] as well?
-- reply 12%

-- ask Would you mind doing CNC(=O)[C@@]12C[C@@H]1[C@@H](n1cnc3c(NC)nc(C#Cc4ccc(Cl)s4)nc31)[C@H](O)[C@@H]2O [Compound 32] as well?
-- reply 6%
